biological target: equine FcRn (large alpha subunit p51) / equine beta-2-microglobulin complex, biotinylated (equine) (UniProt P30441); assay: SPR (Biacore), pH 6
READOUT_TYPE: Kd (nM)
Use nM as the unit, but write only the number.

Req: State the recorded Kd for this entry: equine IgG1 N434P (antibody, part only; not given: variable domains, not shown: another chain or arm of the molecule) constant: ASTTAPKVFALAPGCGTTSDSTVALGCLVSGYFPEPVKVSWNSGSLTSGVHTFPSVLQSSGFYSLSSMVTVPASTWTSETYICNVVHAASNFKVDKRIEPIPDNHQKVCDMSKCPKCPAPELLGGPSVFIFPPNPKDTLMITRTPEVTCVVVDVSQENPDVKFNWYMDGVEVRTATTRPKEEQFNSTYRVVSVLRIQHQDWLSGKEFKCKVNNQALPQPIERTITKTKGRSQEPQVYVLAPHPDELSKSKVSVTCLVKDFYPPEINIEWQSNGQPELETKYSTTQAQQDSDGSYFLYSKLSVDRNRWQQGTTFTCGVMHEALHPHYTQKNVSKNPGK
Resp: 25

Req: Need Kd of equine IgG4 Y436S (antibody, part only; not given: variable domains, not shown: another chain or arm of the molecule) constant: ASTTAPKVFPLASHSAATSGSTVALGCLVSSYFPEPVTVSWNSGALTSGVHTFPSVLQSSGLYSLSSMVTVPASSLKSQTYICNVAHPASSTKVDKKIVIKECNGGCPAECLQVGPSVFIFPPKPKDVLMISRTPTVTCVVVDVGHDFPDVQFNWYVDGVETHTATTEPKQEQFNSTYRVVSVLPIQHKDWLSGKEFKCKVNNKALPAPVERTISKPTGQPREPQVYVLAPHRDELSKNKVSVTCLVKDFYPTDIDIEWKSNGQPEPETKYSTTPAQLDSDGSYFLYSKLTVETNRWQQGTTFTCAVMHEALHNHSTEKSVSKSPGK , thanks.
Resp: 30.9

Req: Looking for the measured Kd of equine IgG4 A426N (antibody, part only; not given: variable domains, not shown: another chain or arm of the molecule) constant: ASTTAPKVFPLASHSAATSGSTVALGCLVSSYFPEPVTVSWNSGALTSGVHTFPSVLQSSGLYSLSSMVTVPASSLKSQTYICNVAHPASSTKVDKKIVIKECNGGCPAECLQVGPSVFIFPPKPKDVLMISRTPTVTCVVVDVGHDFPDVQFNWYVDGVETHTATTEPKQEQFNSTYRVVSVLPIQHKDWLSGKEFKCKVNNKALPAPVERTISKPTGQPREPQVYVLAPHRDELSKNKVSVTCLVKDFYPTDIDIEWKSNGQPEPETKYSTTPAQLDSDGSYFLYSKLTVETNRWQQGTTFTCNVMHEALHNHYTEKSVSKSPGK , can you help?
Resp: 18.7

Req: Param item = equine IgG1 Q311M (antibody, part only; not given: variable domains, not shown: another chain or arm of the molecule) constant: ASTTAPKVFALAPGCGTTSDSTVALGCLVSGYFPEPVKVSWNSGSLTSGVHTFPSVLQSSGFYSLSSMVTVPASTWTSETYICNVVHAASNFKVDKRIEPIPDNHQKVCDMSKCPKCPAPELLGGPSVFIFPPNPKDTLMITRTPEVTCVVVDVSQENPDVKFNWYMDGVEVRTATTRPKEEQFNSTYRVVSVLRIQHMDWLSGKEFKCKVNNQALPQPIERTITKTKGRSQEPQVYVLAPHPDELSKSKVSVTCLVKDFYPPEINIEWQSNGQPELETKYSTTQAQQDSDGSYFLYSKLSVDRNRWQQGTTFTCGVMHEALHNHYTQKNVSKNPGK ; retrieve measured Kd.
Resp: 12

Data origin: patent US20260070987A1
